# System: MDA-MB-231 breast
# assay_notes: NCI tumour cell line growth inhibition, 48 h
Kindly supply the reported GI50 values for the records listed here.

QUERY: Requested read-out: GI50. Entry: "O=c1c2cc(I)ccc2nc(-c2cccs2)n1-c1ccc(S(=O)(=O)Nc2nccs2)cc1"
RESULT: 25100 nM

QUERY: Param item: COc1cccc2c1C(CO)N1C(C#N)C3CC(C(=O)O)C(C1C2)N3C (stereo not drawn)
RESULT: 271 nM

QUERY: Param item: "CCCCCCCCCCCCC[N+](C)(C)Cc1ccccc1"
RESULT: 1350 nM

###

# Tested on: LOX IMVI melanoma
# assay_notes: NCI tumour cell line growth inhibition, 48 h
Kindly supply the reported TGI values for the records listed here.

QUERY: Requested read-out: TGI. Entry: "Cc1ccc2nc(C=Nc3ccccc3Cl)cc(C)c2c1"
RESULT: 22.6 µM

QUERY: Param item: "NC(=O)NN=C1C[C@H]2CCCC[C@H]2C1"
RESULT: > 100 µM

QUERY: Param item: "Nc1nc(-c2cccc3ccccc23)cc2ccccc12"
RESULT: 14.2 µM

QUERY: Param item: "CCCCC1=C(Br)C(=C(Br)Br)OC1=O"
RESULT: 4.78 µM

QUERY: Param item: "COc1cc(C(=O)/C=C/c2c(-c3cccs3)nc3sc(C)cn23)cc(OC)c1OC"
RESULT: > 100 µM

QUERY: Param item: "O=C1/C(=C/c2ccc3c(c2)CCC3)Cc2cc3c(cc21)CCC3"
RESULT: > 100 µM

QUERY: Param item: CCOC(=O)N1C=NC23C(c4ccccc4)C(c4ccccc4)C12C(=O)N(C)C(=O)N3C (configuration not stated)
RESULT: > 100 µM

QUERY: Param item: Cc1cn(CCOCCOC(=O)NC(CCCN=C(N)N)C(=O)O)c(=O)[nH]c1=O (configuration not stated)
RESULT: > 100 µM

QUERY: Param item: "CC(C)(O)c1coc(S(=O)(=O)/N=C(\O)Nc2c3c(cc4c2CCC4)CCC3)c1"
RESULT: > 100 µM

QUERY: Param item: COc1ccccc1N1C(=O)C2C3c4ccccc4C(OC(C)=O)(c4ccccc43)C2C1=O (configuration not stated)
RESULT: > 100 µM

QUERY: Param item: "O=C1NC(=NCCc2cccs2)S/C1=C\c1ccc2ncccc2c1"
RESULT: > 25 µM

QUERY: Param item: "CCc1cccc(C(C)C)c1NC(=O)C(=O)C1C(=O)NC(=O)NC1=O"
RESULT: > 100 µM

QUERY: Param item: O=P(O)(OP(=O)(O)c1ccccc1)c1ccccc1 (tested in a mixture with another compound)
RESULT: > 100 µM

QUERY: Param item: COc1ccc2c(c1)CC1Cc3cc(OC)c(OC)cc3CN1CC2 (configuration not stated)
RESULT: > 100 µM

QUERY: Param item: "O=C(O)c1ccccc1SCc1cccc2c(=O)c3ccc(Cl)cc3oc12"
RESULT: > 50 µM

QUERY: Param item: "C/C(CC(=O)Nc1ccccc1[N+](=O)[O-])=N\NC(N)=O"
RESULT: > 100 µM

QUERY: Param item: "O=C1c2ccccc2-c2c1c1ccccc1c(=O)n2-c1cccnc1"
RESULT: > 100 µM

QUERY: Param item: "OC(Cc1cccnc1)(c1ccccc1)c1ccccc1"
RESULT: > 100 µM

QUERY: Param item: CNC(=O)CCC(NC(=O)OC(C)(C)C)C(=O)NC(Cc1ccc(NC(=O)CCCCC(C)=O)cc1)C(=O)NCC(=O)NC (configuration not stated)
RESULT: > 100 µM

QUERY: Param item: "COc1cc(Nc2cc(C)nc(N3CCN(c4ccnc5cc(Cl)ccc45)CC3)n2)cc(OC)c1"
RESULT: 2.82 µM

QUERY: Param item: "C=C(Br)CN(C)CC(=C)Br"
RESULT: > 100 µM

QUERY: Param item: O=c1nc(Oc2c(F)c(F)c(F)c(F)c2F)ccn1C1OC(CO)C(O)C1O (configuration not stated)
RESULT: > 100 µM

QUERY: Param item: "COc1cc(-n2cncc2-c2ccc3ccccc3c2)cc(OC)c1OC"
RESULT: > 41.8 µM

QUERY: Param item: O=C1OCC2=C1C(c1cccc(F)c1)c1cc3c(cc1N2CCO)CCC3 (configuration not stated)
RESULT: 10.1 µM

QUERY: Param item: C[C@]12CC(c3ccccc3O1)C(C(N)=O)C(=O)N2 (some centres not stated)
RESULT: > 100 µM

QUERY: Param item: "COc1cc2c(cc1O)N=C[C@@H]1C[C@@H](F)CN1C2=O"
RESULT: 7.21 µM

QUERY: Param item: "O=C1C=Cc2cscc21"
RESULT: > 100 µM

QUERY: Param item: CC(C)(Cl)C(Cl)CC/C(CBr)=C(\Cl)CCl (configuration not stated)
RESULT: 1.35 µM

QUERY: Param item: "Cn1cc(NC(=O)c2cc(NC(=O)c3cc(NC=O)cn3C)cn2C)cc1C(=O)NCCC(=N)N"
RESULT: > 100 µM

QUERY: Param item: "CC1=C(SCCC(=O)OCC(=O)NCCC[Te]c2ccccc2)C(=O)c2ccccc2C1=O"
RESULT: 4.07 µM

QUERY: Param item: "COC(=O)C1=C(C)NC(C)=C(C(=O)OC)C1c1ccc(NO)cc1"
RESULT: 12.9 µM

QUERY: Param item: "O=C(O)/C=N/NC(=S)NC1CCCCC1"
RESULT: > 100 µM

QUERY: Param item: "COc1cc(/C=N/NC(=O)c2ccc(NC(C)=O)cc2OC)ccc1O"
RESULT: > 100 µM

QUERY: Param item: "CCN(CC)c1ccc(N=O)cc1"
RESULT: 3.53 µM

QUERY: Param item: "c1ccc(N=C2SC(c3ccccc3)(c3ccccc3)c3ccccc32)cc1"
RESULT: > 100 µM

QUERY: Param item: "CC[C@H]1C[C@@H](O)[C@@H]2[C@H](O)[C@H](O)CN2C1"
RESULT: > 100 µM

QUERY: Param item: "Cc1ccc(C(=O)Nc2ccc(S(=O)(=O)O)c3cc(S(=O)(=O)O)cc(S(=O)(=O)O)c23)cc1NC(=O)Nc1cc(C(=O)Nc2ccc(S(=O)(=O)O)c3cc(S(=O)(=O)O)cc(S(=O)(=O)O)c23)ccc1C"
RESULT: > 87.5 µM

All values here come from PubChem BioAssay (NCI).
